Reported IC50 is given for each of the following compounds.
test system: A2780 ovarian cancer cells; assay: Activity Assay 6: CyQuant cell growth inhibition, A2780; type: cell-based; details: Homo sapiens, 96 h, A2780, 4 days
Measure: IC50 (nM)

1) CC(C)[C@H]1NC(=O)[C@H]2CSSCC/C=C/[C@H](CC(=O)N[C@H](C)C(=O)N2)OC(=O)[C@@H](C)NC1=O : 651
2) CC(C)[C@H]1NC(=O)[C@H]2CSSCC/C=C/[C@H](CC(=O)N[C@H](C)C(=O)N2)OC(=O)CNC1=O : 130
3) CC(C)[C@H]1NC(=O)[C@H]2CSSCC/C=C/[C@H](CC(=O)N[C@H](CCC(=O)OC(C)(C)C)C(=O)N2)OC(=O)CNC1=O : 3
